# Tgt: UniProtKB P46663
# Sequence (P46663 1-353): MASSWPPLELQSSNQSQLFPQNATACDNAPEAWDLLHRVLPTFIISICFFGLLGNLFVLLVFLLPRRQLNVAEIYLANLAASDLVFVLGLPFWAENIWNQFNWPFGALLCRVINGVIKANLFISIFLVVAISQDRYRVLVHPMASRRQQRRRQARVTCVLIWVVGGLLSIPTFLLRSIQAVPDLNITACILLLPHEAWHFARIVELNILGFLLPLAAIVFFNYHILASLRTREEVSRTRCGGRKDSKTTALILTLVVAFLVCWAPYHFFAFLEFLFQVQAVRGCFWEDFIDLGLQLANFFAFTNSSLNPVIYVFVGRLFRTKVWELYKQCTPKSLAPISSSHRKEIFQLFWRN
# Procedure Summary: Calcium flux assay for Bradykinin B1 antagonist, CHO-K1 cell line expressing human B1
# Condition Details: CHO-K1 cells expressing human B1, agonist Lys-(Des-Arg)-Bradykinin, read-out: Potency (IC50 value against human B1)
Structures can show the parent of a compound that is named as a salt.
Measured Quantity: IC50

GET /values?item= COc1cc(C)c(S(=O)(=O)N(C)Cc2cc(C(=O)N3CCN(CC4CCCN(C)C4)CC3)co2)c(C)c1 (stereo not shown) [Ex 31] &system= UniProtKB P46663 returns IC50: 10 to 100 nM

The measured IC50 that COc1cc(C)c(S(=O)(=O)N(C)Cc2cc(C(=O)N3CCC(CN4CCCC4)CC3)co2)c(C)c1 [Ex 41] showed for UniProtKB P46663 is 100 to 1000 nM

Entry COc1cc(C)c(S(=O)(=O)N(C)Cc2cc(C(=O)N(C)Cc3ccc(CN4CCC(O)CC4)cc3)co2)c(C)c1 [Ex 126] : IC50 on UniProtKB P46663 = 10 to 100 nM

Item COc1cc(C)c(S(=O)(=O)N(C)Cc2nnc(C(=O)N(C)Cc3ccc(CN4CC(OC)C4)cc3)o2)c(C)c1 [Ex 287] was tested on UniProtKB P46663; the reported IC50 is 100 to 1000 nM

The recorded IC50 with UniProtKB P46663 for COc1cc(C)c(S(=O)(=O)N(Cc2cc(C(=O)NCc3ccc(C4=NCCN4)cc3)co2)C2CC2)c(C)c1 [Ex 82, trifluoroacetate] was 100 to 1000 nM

With those in mind, consider the next molecule.
Short answer on UniProtKB P46663 for COc1cc(C)c(S(=O)(=O)N(Cc2cc(C(=O)N3CCN(CCCN(C)C)CC3)co2)C2CC2)c(C)c1 [Ex 118, trifluoroacetate] , IC50: 10 to 100 nM

* * *

Measured IC50 of individual entries
# Tgt: human B1 (Homo sapiens)
# Procedure Summary: Calcium flux assay for Bradykinin B1 antagonist, CHO-K1 cell line expressing human B1
# Condition Details: CHO-K1 cells expressing human B1, agonist Lys-(Des-Arg)-Bradykinin, read-out: Potency (IC50 value against human B1)

Bench note, human B1 (Homo sapiens): COc1cc(C)c(S(=O)(=O)N(Cc2cc(C(=O)N(C)CCc3ccc(C4=NCCN4)cc3)co2)C(C)C)c(C)c1 , IC50 reads 0.01 to 0.1 µM

Considering COc1cc(C)c(S(=O)(=O)N(C)Cc2nnc(C(=O)N3CCN(CC4CCN(C(=O)OC(C)(C)C)CC4)CC3)o2)c(C)c1 , its IC50 with human B1 (Homo sapiens) was recorded as 0.1 to 1 µM

Field IC50 (system: human B1 (Homo sapiens)) for entry COc1cc(C)c(S(=O)(=O)N(C)Cc2cc(C(=O)N(C)CCc3ccc(C4=NCCN4)cc3)co2)c(C)c1 = < 0.01 µM

Field IC50 (system: human B1 (Homo sapiens)) for entry COc1cc(C)c(S(=O)(=O)N(C)Cc2nc(C(=O)N(C)Cc3ccc(CN4CCCC4)cc3)co2)c(C)c1 = < 0.01 µM

The compound COc1cc(C)c(S(=O)(=O)N(Cc2cc(C(=O)N(C)Cc3ccc(C4=NCCN4)cc3)co2)c2ccccc2)c(C)c1 on human B1 (Homo sapiens): IC50 was 0.1 to 1 µM
